Molecular target: EML4-ALK (Homo sapiens, UniProt Q9UM73)
Construct: purchased Carna Biosciences (Chuo-ku, Kobe, Japan); the other entry of the earlier key: EML4 (Q9HC35, Echinoderm microtubule-associated protein-like 4)
Sequence (Q9UM73 with tags, fused parts or gaps): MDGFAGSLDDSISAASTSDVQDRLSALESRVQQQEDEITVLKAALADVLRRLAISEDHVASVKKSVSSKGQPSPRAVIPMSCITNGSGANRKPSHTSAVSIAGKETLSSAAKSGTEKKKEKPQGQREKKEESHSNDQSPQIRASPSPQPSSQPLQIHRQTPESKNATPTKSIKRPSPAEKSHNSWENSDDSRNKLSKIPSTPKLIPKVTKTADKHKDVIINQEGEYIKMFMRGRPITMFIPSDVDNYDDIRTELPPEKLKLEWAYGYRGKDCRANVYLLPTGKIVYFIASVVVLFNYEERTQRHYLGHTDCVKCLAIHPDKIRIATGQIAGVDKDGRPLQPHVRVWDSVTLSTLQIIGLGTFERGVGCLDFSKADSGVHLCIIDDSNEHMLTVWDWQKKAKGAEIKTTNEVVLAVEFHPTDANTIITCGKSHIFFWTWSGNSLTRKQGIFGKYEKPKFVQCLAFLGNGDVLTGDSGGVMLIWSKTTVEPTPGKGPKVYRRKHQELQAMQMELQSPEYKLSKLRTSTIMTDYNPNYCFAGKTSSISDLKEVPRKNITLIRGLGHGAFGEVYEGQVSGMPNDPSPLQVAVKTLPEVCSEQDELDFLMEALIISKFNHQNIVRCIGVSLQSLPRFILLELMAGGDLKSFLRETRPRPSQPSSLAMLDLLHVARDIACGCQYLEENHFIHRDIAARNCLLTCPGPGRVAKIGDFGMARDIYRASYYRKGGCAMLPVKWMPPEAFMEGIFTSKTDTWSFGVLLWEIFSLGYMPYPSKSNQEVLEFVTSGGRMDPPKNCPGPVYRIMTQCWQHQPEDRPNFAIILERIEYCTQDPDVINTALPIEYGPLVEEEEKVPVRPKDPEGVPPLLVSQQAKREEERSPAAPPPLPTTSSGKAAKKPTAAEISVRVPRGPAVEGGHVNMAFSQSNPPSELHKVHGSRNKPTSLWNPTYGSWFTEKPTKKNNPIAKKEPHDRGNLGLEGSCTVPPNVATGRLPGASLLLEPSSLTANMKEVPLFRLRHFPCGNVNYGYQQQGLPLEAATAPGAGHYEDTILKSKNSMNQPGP
Experiment: Off-chip mobility shift assay (Carna Biosciences), EML4-ALK
Assay type: biochemical
Conditions: footnote #: EML4-ALK; read-out: IC50 ALK Kinase (# EML4-ALK)
pIC50: −log10 of the molar value.
outcome measure: pIC50

Prompt line: Give its pIC50 value. Item: COc1cc(P(C)(C)=O)ccc1-c1cnc(N)c(O[C@H](C)c2c(Cl)ccc(F)c2Cl)c1 [Example 24]
Response line: > 7.00

Prompt line: Give its pIC50 value. Item: C[C@@H](Oc1cc(-c2ccc(P(C)(C)=O)cc2F)cnc1N)c1c(Cl)ccc(F)c1Cl [Example 25]
Response line: > 7.00

---

Molecular target: ALK mutant L1196M (Homo sapiens, UniProt Q9UM73, L1196M)
Construct: purchased Carna Biosciences (Chuo-ku, Kobe, Japan)
Sequence (Q9UM73 19-1620 L1196M): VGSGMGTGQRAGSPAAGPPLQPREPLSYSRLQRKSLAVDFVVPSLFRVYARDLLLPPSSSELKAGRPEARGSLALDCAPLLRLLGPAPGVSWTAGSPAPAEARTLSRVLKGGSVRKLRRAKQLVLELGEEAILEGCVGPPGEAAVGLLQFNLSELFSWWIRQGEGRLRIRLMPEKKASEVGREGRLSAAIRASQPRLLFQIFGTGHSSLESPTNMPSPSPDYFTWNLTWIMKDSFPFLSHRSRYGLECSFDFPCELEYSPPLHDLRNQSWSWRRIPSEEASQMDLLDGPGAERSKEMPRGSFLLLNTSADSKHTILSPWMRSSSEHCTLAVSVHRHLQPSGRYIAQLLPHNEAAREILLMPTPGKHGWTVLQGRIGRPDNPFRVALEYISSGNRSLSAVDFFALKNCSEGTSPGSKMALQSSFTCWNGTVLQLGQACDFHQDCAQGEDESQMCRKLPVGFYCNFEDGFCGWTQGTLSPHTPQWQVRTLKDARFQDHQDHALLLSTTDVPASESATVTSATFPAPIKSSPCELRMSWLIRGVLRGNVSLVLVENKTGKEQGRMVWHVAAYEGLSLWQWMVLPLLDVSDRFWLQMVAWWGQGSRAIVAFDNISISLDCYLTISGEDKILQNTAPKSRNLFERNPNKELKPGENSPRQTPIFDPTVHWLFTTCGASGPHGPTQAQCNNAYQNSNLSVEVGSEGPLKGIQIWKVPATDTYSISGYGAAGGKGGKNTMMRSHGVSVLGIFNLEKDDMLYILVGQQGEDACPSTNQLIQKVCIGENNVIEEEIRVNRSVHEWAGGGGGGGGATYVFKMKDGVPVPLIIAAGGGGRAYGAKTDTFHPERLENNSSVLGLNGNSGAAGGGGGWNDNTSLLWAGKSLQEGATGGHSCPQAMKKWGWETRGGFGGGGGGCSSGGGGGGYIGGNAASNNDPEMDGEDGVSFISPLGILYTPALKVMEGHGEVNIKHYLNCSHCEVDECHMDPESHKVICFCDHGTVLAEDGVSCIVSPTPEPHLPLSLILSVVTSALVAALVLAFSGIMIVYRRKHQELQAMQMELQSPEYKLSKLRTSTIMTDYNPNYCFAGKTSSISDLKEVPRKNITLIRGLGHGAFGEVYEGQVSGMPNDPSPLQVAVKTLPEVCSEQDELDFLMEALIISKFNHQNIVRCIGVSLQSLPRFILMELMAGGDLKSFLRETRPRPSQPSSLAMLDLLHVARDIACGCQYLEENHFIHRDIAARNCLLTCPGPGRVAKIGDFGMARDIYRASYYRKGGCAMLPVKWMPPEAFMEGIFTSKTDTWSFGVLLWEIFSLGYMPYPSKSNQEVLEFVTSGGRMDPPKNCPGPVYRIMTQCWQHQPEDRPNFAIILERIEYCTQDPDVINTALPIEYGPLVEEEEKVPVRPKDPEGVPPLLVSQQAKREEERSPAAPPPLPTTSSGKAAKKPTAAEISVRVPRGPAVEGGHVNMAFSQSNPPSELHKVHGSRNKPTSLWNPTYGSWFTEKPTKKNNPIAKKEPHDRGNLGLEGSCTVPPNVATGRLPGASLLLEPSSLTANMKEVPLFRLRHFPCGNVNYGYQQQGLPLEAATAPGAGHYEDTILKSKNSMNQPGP
Assay: Off-chip mobility shift assay (Carna Biosciences), ALK L1196M
Assay type: biochemical
Conditions: footnote #: L1196M; read-out: IC50 ALK Kinase (# mutant L1196M)
outcome measure: IC50

Prompt line: Give its IC50 value. Item: `COc1cc(P(C)(C)=O)ccc1-c1cnc(N)c(O[C@H](C)c2c(Cl)ccc(F)c2Cl)c1`
Response line: < 100 nM

Prompt line: Give its IC50 value. Item: `C[C@@H](Oc1cc(-c2ccc(P(C)(C)=O)cc2F)cnc1N)c1c(Cl)ccc(F)c1Cl`
Response line: < 100 nM

---

Tested on: SU-DHL-1
Assay: Cell proliferation assay (MTS / BrdU), SU-DHL-1
Format: cell-based
Conditions: Homo sapiens, 72 hours, 2% FBS
pIC50: −log10 of the molar value.
Record form. Attribute: pIC50. Fill in for each entry.

Prompt line: Given the entry CC(Oc1nc(-c2ccc(P(C)(C)=O)cc2)cnc1N)c1c(Cl)ccc(F)c1Cl (centres unmarked) [Example 11] , what pIC50 was observed with SU-DHL-1?
Response line: 6.30 to 7.00

Prompt line: Given the entry C[C@@H](Oc1cc(-c2ccc(P(C)(C)=O)cc2F)cnc1N)c1c(Cl)ccc(F)c1Cl [Example 25] , what pIC50 was observed with SU-DHL-1?
Response line: > 7.00

Prompt line: Given the entry CC(Oc1cc(-c2cncc(P(C)(C)=O)c2)cnc1N)c1c(Cl)ccc(F)c1Cl (centres unmarked) [Example 6] , what pIC50 was observed with SU-DHL-1?
Response line: 5.30 to 6.00

Prompt line: Given the entry CC(Oc1cc(-c2ccc(P(C)(C)=O)cn2)cnc1N)c1c(Cl)ccc(F)c1Cl (centres unmarked) [Example 18] , what pIC50 was observed with SU-DHL-1?
Response line: 6.30 to 7.00

Prompt line: Given the entry COc1cc(P(C)(C)=O)ccc1-c1cnc(N)c(OC(C)c2c(Cl)ccc(F)c2Cl)c1 (centres unmarked) [Example 8] , what pIC50 was observed with SU-DHL-1?
Response line: > 7.00

Prompt line: Given the entry CC(Oc1cc(-c2ccc(P(C)(C)=O)nc2)cnc1N)c1c(Cl)ccc(F)c1Cl (centres unmarked) [Example 16] , what pIC50 was observed with SU-DHL-1?
Response line: 5.30 to 6.00

Prompt line: Given the entry CC(Oc1cc(-c2ccc(P(C)(C)=O)c(F)c2)cnc1N)c1c(Cl)ccc(F)c1Cl (centres unmarked) [Example 14] , what pIC50 was observed with SU-DHL-1?
Response line: 5.30 to 6.00

Prompt line: Given the entry C[C@@H](Oc1cc(-c2ccc(P(=O)(O)O)cc2)cnc1N)c1c(Cl)ccc(F)c1Cl [Example 29] , what pIC50 was observed with SU-DHL-1?
Response line: 5.30 to 6.00

Prompt line: Given the entry CC(Oc1cc(-c2ccc(P(C)(C)=O)cc2)cnc1N)c1cc(F)ccc1Cl (centres unmarked) [Example 22] , what pIC50 was observed with SU-DHL-1?
Response line: > 7.00

Prompt line: Given the entry CC(Oc1cc(-c2ccc(P(C)(C)=O)cc2Cl)cnc1N)c1c(Cl)ccc(F)c1Cl (centres unmarked) [Example 19] , what pIC50 was observed with SU-DHL-1?
Response line: 6.30 to 7.00

Prompt line: Given the entry CC(Oc1cc(-c2ccc(P(C)(C)=O)cc2)cnc1N)c1cc(Cl)ccc1Cl (centres unmarked) [Example 21] , what pIC50 was observed with SU-DHL-1?
Response line: > 7.00

Prompt line: Given the entry CC(Oc1cc(-c2ccc(P(C)(C)=O)cc2O)cnc1N)c1c(Cl)ccc(F)c1Cl (centres unmarked) [Example 17] , what pIC50 was observed with SU-DHL-1?
Response line: > 7.00

Prompt line: Given the entry CC(Oc1cc(-c2ccc(P(=O)(O)O)cc2)cnc1N)c1cc(F)ccc1Cl (centres unmarked) [Example 27] , what pIC50 was observed with SU-DHL-1?
Response line: 5.30 to 6.00

Prompt line: Given the entry CC(Oc1cc(-c2ccc(P(C)(C)=O)cc2F)cnc1N)c1c(Cl)ccc(F)c1Cl (centres unmarked) [Example 13] , what pIC50 was observed with SU-DHL-1?
Response line: 6.30 to 7.00

Prompt line: Given the entry CC(Oc1cc(-c2ccc(P(C)(C)=O)cc2)cnc1N)c1c(Cl)ccc(F)c1Cl (centres unmarked) [Example 1] , what pIC50 was observed with SU-DHL-1?
Response line: > 7.00

Prompt line: Given the entry C[C@@H](Oc1cc(-c2ccc(P(C)(C)=O)cc2)cnc1N)c1c(Cl)ccc(F)c1Cl [Example 23] , what pIC50 was observed with SU-DHL-1?
Response line: > 7.00

Prompt line: Given the entry CC(Oc1cc(-c2ccc(P(C)(C)=O)cc2OC(F)(F)F)cnc1N)c1c(Cl)ccc(F)c1Cl (centres unmarked) [Example 20] , what pIC50 was observed with SU-DHL-1?
Response line: 6.30 to 7.00

Prompt line: Given the entry CCOP(=O)(OCC)c1ccc(-c2cnc(N)c(O[C@H](C)c3c(Cl)ccc(F)c3Cl)c2)cc1 [Example 28] , what pIC50 was observed with SU-DHL-1?
Response line: 5.30 to 6.00

Prompt line: Given the entry COc1cc(P(C)(C)=O)ccc1-c1cnc(N)c(O[C@H](C)c2c(Cl)ccc(F)c2Cl)c1 [Example 24] , what pIC50 was observed with SU-DHL-1?
Response line: > 7.00

Prompt line: Given the entry CC(Oc1cc(-c2ccc(CNCP(C)(C)=O)cc2)cnc1N)c1c(Cl)ccc(F)c1Cl (centres unmarked) [Example 5] , what pIC50 was observed with SU-DHL-1?
Response line: 5.30 to 6.00

---

Record form. Attribute: IC50. Fill in for each entry.
Biological target: ALK wild type (Homo sapiens)
Construct: purchased Carna Biosciences (Chuo-ku, Kobe, Japan)
Sequence (Q9UM73 19-1620): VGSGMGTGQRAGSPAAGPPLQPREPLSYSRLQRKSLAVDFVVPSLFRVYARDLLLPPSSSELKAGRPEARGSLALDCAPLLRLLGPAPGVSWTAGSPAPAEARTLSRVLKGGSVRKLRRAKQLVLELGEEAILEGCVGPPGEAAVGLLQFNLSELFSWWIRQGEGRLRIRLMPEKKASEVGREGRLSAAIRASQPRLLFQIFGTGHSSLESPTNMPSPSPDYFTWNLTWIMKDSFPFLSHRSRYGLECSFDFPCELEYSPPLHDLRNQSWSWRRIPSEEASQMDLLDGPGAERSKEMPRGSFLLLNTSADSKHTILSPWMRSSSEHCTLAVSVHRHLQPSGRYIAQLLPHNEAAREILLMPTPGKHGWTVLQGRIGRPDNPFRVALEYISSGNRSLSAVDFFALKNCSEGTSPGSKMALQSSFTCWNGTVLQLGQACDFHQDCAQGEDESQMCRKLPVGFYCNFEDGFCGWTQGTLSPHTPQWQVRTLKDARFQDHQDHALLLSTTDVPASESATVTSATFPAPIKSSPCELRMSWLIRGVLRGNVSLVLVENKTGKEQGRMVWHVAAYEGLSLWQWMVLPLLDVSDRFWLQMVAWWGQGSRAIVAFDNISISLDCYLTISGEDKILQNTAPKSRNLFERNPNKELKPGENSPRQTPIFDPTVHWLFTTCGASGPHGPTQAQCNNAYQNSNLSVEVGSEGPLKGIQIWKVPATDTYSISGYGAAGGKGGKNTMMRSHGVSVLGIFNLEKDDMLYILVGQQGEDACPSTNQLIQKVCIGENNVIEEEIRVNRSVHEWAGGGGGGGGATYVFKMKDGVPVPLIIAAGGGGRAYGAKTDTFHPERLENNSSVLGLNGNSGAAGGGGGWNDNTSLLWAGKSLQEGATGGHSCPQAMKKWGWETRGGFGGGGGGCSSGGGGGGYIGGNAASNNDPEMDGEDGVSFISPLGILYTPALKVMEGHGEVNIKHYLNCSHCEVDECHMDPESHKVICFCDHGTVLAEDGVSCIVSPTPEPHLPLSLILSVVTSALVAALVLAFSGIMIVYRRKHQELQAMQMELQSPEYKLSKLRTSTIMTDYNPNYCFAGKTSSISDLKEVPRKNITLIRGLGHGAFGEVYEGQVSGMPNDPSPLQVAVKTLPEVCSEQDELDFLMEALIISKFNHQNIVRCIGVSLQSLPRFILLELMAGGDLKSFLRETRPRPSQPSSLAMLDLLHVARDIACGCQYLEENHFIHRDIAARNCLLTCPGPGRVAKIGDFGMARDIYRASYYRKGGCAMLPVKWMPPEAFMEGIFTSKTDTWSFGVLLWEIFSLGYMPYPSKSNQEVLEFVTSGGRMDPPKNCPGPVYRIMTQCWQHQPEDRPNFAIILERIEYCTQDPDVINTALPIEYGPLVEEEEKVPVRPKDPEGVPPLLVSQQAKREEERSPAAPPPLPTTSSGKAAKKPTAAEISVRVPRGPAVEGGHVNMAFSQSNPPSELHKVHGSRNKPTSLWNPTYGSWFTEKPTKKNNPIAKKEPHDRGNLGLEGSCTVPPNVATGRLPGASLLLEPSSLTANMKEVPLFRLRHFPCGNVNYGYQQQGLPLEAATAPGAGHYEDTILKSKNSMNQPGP
Experiment: Off-chip mobility shift assay (Carna Biosciences), ALK wild type
Assay type: biochemical
Settings: mobility shift, ATP 50 μM; read-out: IC50 ALK wild type

Prompt line: Given the entry `C[C@@H](Oc1cc(-c2ccc(P(C)(C)=O)cc2F)cnc1N)c1c(Cl)ccc(F)c1Cl` , what IC50 was observed with ALK wild type (Homo sapiens)?
Response line: < 50 nM

Prompt line: Given the entry `COc1cc(P(C)(C)=O)ccc1-c1cnc(N)c(O[C@H](C)c2c(Cl)ccc(F)c2Cl)c1` , what IC50 was observed with ALK wild type (Homo sapiens)?
Response line: < 50 nM

---

Record form. Attribute: IC50. Fill in for each entry.
Target: ALK (Homo sapiens)
Sequence (Q9UM73 19-1620): as the sequence (Q9UM73 19-1620) above
Assay: ALK enzyme activity assay (HTRF KinEASE)
Assay type: biochemical
Design: purchased Millipore Company (Billerica, Mass., USA)
Conditions: ATP 25 μM, 30° C. 30 minutes

Prompt line: Given the entry CC(Oc1cc(-c2ccc(P(=O)(O)O)cc2)cnc1N)c1cc(F)ccc1Cl (stereo not drawn) , what IC50 was observed with ALK (Homo sapiens)?
Response line: < 100 nM

Prompt line: Given the entry CC(Oc1cc(-c2ccc(P(C)(C)=O)cc2)cnc1N)c1cc(Cl)ccc1Cl (stereo not drawn) , what IC50 was observed with ALK (Homo sapiens)?
Response line: 100 to 500 nM

Prompt line: Given the entry CC(Oc1cc(-c2ccc(CN(CP(C)(C)=O)CP(C)(C)=O)cc2)cnc1N)c1c(Cl)ccc(F)c1Cl (stereo not drawn) , what IC50 was observed with ALK (Homo sapiens)?
Response line: 100 to 500 nM

Prompt line: Given the entry CC(Oc1cc(-c2ccc(CNCP(C)(C)=O)cc2)cnc1N)c1c(Cl)ccc(F)c1Cl (stereo not drawn) , what IC50 was observed with ALK (Homo sapiens)?
Response line: 100 to 500 nM

Prompt line: Given the entry CC(Oc1cc(-c2ccc(P(C)(C)=O)cc2Cl)cnc1N)c1c(Cl)ccc(F)c1Cl (stereo not drawn) , what IC50 was observed with ALK (Homo sapiens)?
Response line: 100 to 500 nM

Prompt line: Given the entry CC(Oc1cc(-c2ccc(P(C)(C)=O)cc2OC(F)(F)F)cnc1N)c1c(Cl)ccc(F)c1Cl (stereo not drawn) , what IC50 was observed with ALK (Homo sapiens)?
Response line: 500 to 1000 nM

Prompt line: Given the entry COc1cc(-c2cnc(N)c(OC(C)c3c(Cl)ccc(F)c3Cl)c2)ccc1P(C)(C)=O (stereo not drawn) , what IC50 was observed with ALK (Homo sapiens)?
Response line: < 100 nM

Prompt line: Given the entry CC(Oc1cc(-c2ccc(P(C)(C)=O)cc2)cnc1N)c1cc(F)ccc1Cl (stereo not drawn) , what IC50 was observed with ALK (Homo sapiens)?
Response line: 100 to 500 nM

Prompt line: Given the entry CC(Oc1cc(-c2ccc(P(C)(C)=O)cc2)cnc1N)c1c(Cl)ccc(F)c1Cl (stereo not drawn) , what IC50 was observed with ALK (Homo sapiens)?
Response line: 100 to 500 nM

Prompt line: Given the entry CC(Oc1cc(-c2cnn(C3CCN(CP(C)(C)=O)CC3)c2)cnc1N)c1c(Cl)ccc(F)c1Cl (stereo not drawn) , what IC50 was observed with ALK (Homo sapiens)?
Response line: < 100 nM

Prompt line: Given the entry CCOP(=O)(OCC)c1ccc(-c2cnc(N)c(OC(C)c3cc(F)ccc3Cl)c2)cc1 (stereo not drawn) , what IC50 was observed with ALK (Homo sapiens)?
Response line: 500 to 1000 nM

Prompt line: Given the entry COc1cc(P(C)(C)=O)ccc1-c1cnc(N)c(OC(C)c2c(Cl)ccc(F)c2Cl)c1 (stereo not drawn) , what IC50 was observed with ALK (Homo sapiens)?
Response line: < 100 nM

Prompt line: Given the entry `C[C@@H](Oc1cc(-c2ccc(P(=O)(O)O)cc2)cnc1N)c1c(Cl)ccc(F)c1Cl` , what IC50 was observed with ALK (Homo sapiens)?
Response line: < 100 nM

Prompt line: Given the entry CC(Oc1cc(-c2ccc(COP(C)(C)=O)cc2)cnc1N)c1c(Cl)ccc(F)c1Cl (stereo not drawn) , what IC50 was observed with ALK (Homo sapiens)?
Response line: 100 to 500 nM

Prompt line: Given the entry CC(Oc1cc(-c2ccc(P(C)(C)=O)c(F)c2)cnc1N)c1c(Cl)ccc(F)c1Cl (stereo not drawn) , what IC50 was observed with ALK (Homo sapiens)?
Response line: 1000 to 5000 nM

Prompt line: Given the entry CC(Oc1nc(-c2ccc(P(C)(C)=O)cc2)cnc1N)c1c(Cl)ccc(F)c1Cl (stereo not drawn) , what IC50 was observed with ALK (Homo sapiens)?
Response line: 100 to 500 nM

Prompt line: Given the entry CC(Oc1cc(-c2cnn(CP(C)(C)=O)c2)cnc1N)c1c(Cl)ccc(F)c1Cl (stereo not drawn) , what IC50 was observed with ALK (Homo sapiens)?
Response line: 100 to 500 nM

Prompt line: Given the entry CC(Oc1cc(-c2ccc(P(C)(C)=O)nc2)cnc1N)c1c(Cl)ccc(F)c1Cl (stereo not drawn) , what IC50 was observed with ALK (Homo sapiens)?
Response line: 500 to 1000 nM

Prompt line: Given the entry CC(Oc1cc(-c2ccc(P(C)(C)=O)c3ccccc23)cnc1N)c1c(Cl)ccc(F)c1Cl (stereo not drawn) , what IC50 was observed with ALK (Homo sapiens)?
Response line: 1000 to 5000 nM

Prompt line: Given the entry CC(Oc1cc(-c2ccc(P(C)(C)=O)cc2O)cnc1N)c1c(Cl)ccc(F)c1Cl (stereo not drawn) , what IC50 was observed with ALK (Homo sapiens)?
Response line: 100 to 500 nM

Prompt line: Given the entry CC(Oc1cc(-c2ccc(P(C)(C)=O)cc2C(F)(F)F)cnc1N)c1c(Cl)ccc(F)c1Cl (stereo not drawn) , what IC50 was observed with ALK (Homo sapiens)?
Response line: 500 to 1000 nM

Prompt line: Given the entry `C[C@@H](Oc1cc(-c2ccc(P(C)(C)=O)cc2)cnc1N)c1c(Cl)ccc(F)c1Cl` , what IC50 was observed with ALK (Homo sapiens)?
Response line: 100 to 500 nM

Prompt line: Given the entry CC(Oc1cc(-c2ccc(P(C)(C)=O)cn2)cnc1N)c1c(Cl)ccc(F)c1Cl (stereo not drawn) , what IC50 was observed with ALK (Homo sapiens)?
Response line: 100 to 500 nM

Prompt line: Given the entry CC(Oc1cc(-c2ccc(P(C)(C)=O)cc2F)cnc1N)c1c(Cl)ccc(F)c1Cl (stereo not drawn) , what IC50 was observed with ALK (Homo sapiens)?
Response line: < 100 nM

Prompt line: Given the entry `CCOP(=O)(OCC)c1ccc(-c2cnc(N)c(O[C@H](C)c3c(Cl)ccc(F)c3Cl)c2)cc1` , what IC50 was observed with ALK (Homo sapiens)?
Response line: 100 to 500 nM

Prompt line: Given the entry COc1cc(-c2cnc(N)c(OC(C)c3c(Cl)ccc(F)c3Cl)c2)c(F)cc1P(C)(C)=O (stereo not drawn) , what IC50 was observed with ALK (Homo sapiens)?
Response line: 1000 to 5000 nM

Prompt line: Given the entry CC(Oc1cc(-c2cncc(P(C)(C)=O)c2)cnc1N)c1c(Cl)ccc(F)c1Cl (stereo not drawn) , what IC50 was observed with ALK (Homo sapiens)?
Response line: 100 to 500 nM
